Values were extracted from ChEMBL document CHEMBL1157539.

System: HepG2
run description: GSK_TCMDC: Percent inhibition of human HepG2 cell line. Test compounds present at 10uM.
Type: functional
property label: Inhibition (%)

molecule=Cc1cc(=NN=Cc2cccc(Cl)c2)c2cc(F)ccc2[nH]1 output_unit=% numeric_value=1
molecule="CS(=O)(=O)CCNCc1ccc(-c2ccc3ncnc(Nc4ccc(OCc5ccccc5)c(Cl)c4)c3c2)o1.Cl [GW574783B]" output_unit=% numeric_value=4
molecule=Cc1cc(-c2ccc(NC(=O)N3CCc4cc(Br)c(N5CCN(C)CC5)cc43)cc2)ccc1C#N output_unit=% numeric_value=100
molecule=CS(=O)(=O)c1cccc(-c2cnc3[nH]cc(-c4ccc(CCC(=O)O)cc4)c3c2)c1 output_unit=% numeric_value=1
molecule=CN(CCCCCNC(=O)/C=C/c1ccc(Cl)c(Cl)c1)CCCCc1c[nH]c2ccccc12 output_unit=% numeric_value=17
